Molecular target: Retinoic acid receptor RXR-alpha (Homo sapiens)
Test: qHTS assay for small molecule antagonists of retinoid X receptor alpha signaling (AID 588546);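 note: cells stimulated with 9-cis-retinoic acid as agonist; % is set by controls: 0 for no effect and ±100 for the full control effect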
Conditions: HEK293T RXRa-UAS-bla, beta-lactamase ratio, antagonist mode
Inconclusive results are not listed.
compounds and their reported max response
measured property: max response (%)

sample_smiles=Cc1c(C(=O)O)c(O)cc2c1C(=O)c1c(O)c([C@H]3O[C@H](CO)[C@@H](O)[C@H](O)[C@H]3O)c(O)c(O)c1C2=O target_or_test_system="Retinoic acid receptor RXR-alpha (Homo sapiens)" measured_property="max response" endpoint_value=21
sample_smiles=O=[N+]([O-])c1cc(Cl)c(Cl)c(Cl)c1Cl target_or_test_system="Retinoic acid receptor RXR-alpha (Homo sapiens)" measured_property="max response" endpoint_value=-21.8
sample_smiles=c1ccc(Nc2cccc3ccccc23)cc1 target_or_test_system="Retinoic acid receptor RXR-alpha (Homo sapiens)" measured_property="max response" endpoint_value=-23.3
sample_smiles=c1c[nH]cn1 target_or_test_system="Retinoic acid receptor RXR-alpha (Homo sapiens)" measured_property="max response" endpoint_value=-1.89
sample_smiles=Nc1ccccc1O target_or_test_system="Retinoic acid receptor RXR-alpha (Homo sapiens)" measured_property="max response" endpoint_value=-7.25
sample_smiles=c1ccc2ncccc2c1 target_or_test_system="Retinoic acid receptor RXR-alpha (Homo sapiens)" measured_property="max response" endpoint_value=0.834
sample_smiles=CC(=O)OCc1ccc2c(c1)OCO2 target_or_test_system="Retinoic acid receptor RXR-alpha (Homo sapiens)" measured_property="max response" endpoint_value=24.9
sample_smiles=O=c1[nH]ncc2ccccc12 target_or_test_system="Retinoic acid receptor RXR-alpha (Homo sapiens)" measured_property="max response" endpoint_value=13
sample_smiles=CC(C)COC(=O)COc1cc(Cl)c(Cl)cc1Cl target_or_test_system="Retinoic acid receptor RXR-alpha (Homo sapiens)" measured_property="max response" endpoint_value=8.47
sample_smiles=c1cc2c3c(c1)ccc1cccc(c13)C2 target_or_test_system="Retinoic acid receptor RXR-alpha (Homo sapiens)" measured_property="max response" endpoint_value=-11.6
sample_smiles=CCc1ccc(C(c2ccc(CC)cc2)C(Cl)Cl)cc1 target_or_test_system="Retinoic acid receptor RXR-alpha (Homo sapiens)" measured_property="max response" endpoint_value=-8.97
sample_smiles=S=C(NC1CCCCC1)NC1CCCCC1 target_or_test_system="Retinoic acid receptor RXR-alpha (Homo sapiens)" measured_property="max response" endpoint_value=-14.3
sample_smiles=C[Si](C)(C)Cl target_or_test_system="Retinoic acid receptor RXR-alpha (Homo sapiens)" measured_property="max response" endpoint_value=16.7
sample_smiles=Cc1ccc(C(=O)O)cc1[N+](=O)[O-] target_or_test_system="Retinoic acid receptor RXR-alpha (Homo sapiens)" measured_property="max response" endpoint_value=8.29

----------
compounds and their reported activity, negative = inhibition
Experiment: qHTS profiling for inhibitors of Plasmodium falciparum proliferation (AID 504749);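 note: 0% = DMSO vehicle and full inhibition = artemisinin control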
Conditions: P. falciparum in erythrocytes, SYBR Green DNA, 72 h; at 28.7 µM (top of the series); parasite line A
Results filed as inconclusive are left out.
measured property: activity, negative = inhibition (%)

compound=CN(C)[C@H]1C(=O)C(C(=O)NCN2CCCC2)=C(O)[C@]2(O)C(=O)C3=C(O)c4c(O)cccc4[C@](C)(O)[C@H]3C[C@H]12 measured_property="activity, negative = inhibition" unit_text=% endpoint_value=9.1
compound=N[C@H](COP(=O)(O)O)C(=O)O measured_property="activity, negative = inhibition" unit_text=% endpoint_value=15.2
compound=C[C@H](CCC(=O)O)[C@H]1CC[C@@H]2[C@H]3[C@@H](C[C@@H](O)[C@]21C)[C@]1(C)CC[C@H](O)C[C@@H]1C[C@@H]3O measured_property="activity, negative = inhibition" unit_text=% endpoint_value=-6.11
compound=Cc1cn([C@H]2C[C@H](N=[N+]=[N-])[C@H](CO)O2)c(=O)[nH]c1=O measured_property="activity, negative = inhibition" unit_text=% endpoint_value=7.02
compound=Cc1onc(-c2c(F)cccc2Cl)c1C(=O)N[C@@H]1C(=O)N2[C@H]1SC(C)(C)[C@H]2C(=O)O measured_property="activity, negative = inhibition" unit_text=% endpoint_value=1.43
compound=N[C@@H](Cc1ccccc1)C(=O)O measured_property="activity, negative = inhibition" unit_text=% endpoint_value=4.49
compound=C[C@]12CC[C@H]3c4ccc(O)cc4CC[C@@H]3[C@H]1CC[C@@H]2OC(=O)CCC1CCCC1 measured_property="activity, negative = inhibition" unit_text=% endpoint_value=5.91
compound="C[N+]1(C)[C@@H]2CC(OC(=O)[C@@H](CO)c3ccccc3)C[C@@H]1[C@H]1O[C@H]12 (some centres not stated)" measured_property="activity, negative = inhibition" unit_text=% endpoint_value=5.68
compound=COc1cccc2c1C(=O)c1c(O)c3c(c(O)c1C2=O)C[C@](O)(C(=O)CO)C[C@@H]3O[C@H]1C[C@H](N)[C@@H](O)[C@H](C)O1 measured_property="activity, negative = inhibition" unit_text=% endpoint_value=6.65
compound=C[C@]12CC[C@H]3c4ccc(O)cc4CC[C@@H]3[C@H]1CC[C@@H]2OP(=O)(O)O measured_property="activity, negative = inhibition" unit_text=% endpoint_value=12.7
compound=CC(=O)N1CCN(c2ccc(OC[C@@H]3CO[C@@](Cn4ccnc4)(c4ccc(Cl)cc4Cl)O3)cc2)CC1 measured_property="activity, negative = inhibition" unit_text=% endpoint_value=-14.8
compound=CC1(C)S[C@@H]2[C@H](NC(=O)Cc3ccccc3)C(=O)N2[C@@H]1C(=O)O measured_property="activity, negative = inhibition" unit_text=% endpoint_value=2.23
